Values were extracted from ChEMBL document CHEMBL1155822.

test system: SH-SY5Y; assay: Antioxidant activity against tert-butyl hydroperoxide-induced ROS evoked cell death in human SH-SY5Y cells; format: functional, cell-based
Form field: pIC50 (one value per entry).
Convention used: pIC50 is expressed as -log10 of the molar concentration.

Please review the entries below; each comes with its answer.
compound=Oc1cccc2[nH]c3ccccc3c12 recorded_result=7.15
compound=Clc1ccc2c(NCCCNCCCOc3cccc4[nH]c5ccccc5c34)c3c(nc2c1)CCCC3 recorded_result=4.64

Consider now this further compound.
What does the record list as pIC50 for Cc1c(C)c2c(c(C)c1O)CCC(C)(C(=O)O)O2 (stereo not drawn) ?
4.30

====

target: Cholinesterase (Homo sapiens); experiment: Inhibition of human serum BChE by Ellman's method
Sequence (P06276 whole entry): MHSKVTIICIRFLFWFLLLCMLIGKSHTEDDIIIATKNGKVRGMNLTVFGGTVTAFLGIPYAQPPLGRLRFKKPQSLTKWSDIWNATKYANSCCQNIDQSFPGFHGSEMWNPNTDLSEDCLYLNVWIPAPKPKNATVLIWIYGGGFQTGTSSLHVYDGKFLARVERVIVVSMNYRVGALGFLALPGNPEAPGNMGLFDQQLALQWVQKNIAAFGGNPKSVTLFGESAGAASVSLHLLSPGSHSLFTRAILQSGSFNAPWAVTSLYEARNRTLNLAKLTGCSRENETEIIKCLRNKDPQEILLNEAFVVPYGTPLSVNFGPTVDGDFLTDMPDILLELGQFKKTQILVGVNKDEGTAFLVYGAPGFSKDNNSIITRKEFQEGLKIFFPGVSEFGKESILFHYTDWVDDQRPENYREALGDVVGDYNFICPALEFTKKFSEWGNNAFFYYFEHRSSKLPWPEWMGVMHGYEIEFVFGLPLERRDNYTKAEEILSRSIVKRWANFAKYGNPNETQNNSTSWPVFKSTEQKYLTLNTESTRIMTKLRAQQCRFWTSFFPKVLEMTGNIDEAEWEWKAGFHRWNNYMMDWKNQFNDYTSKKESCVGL
Form field: IC50 (one value per entry).
Your answer is read as nM, so omit the unit and give the number.

compound_smiles=Clc1ccc2c(NCCCNCCCCCOc3cccc4[nH]c5ccccc5c34)c3c(nc2c1)CCCC3 recorded_result=189

What does the record list as IC50 for Clc1ccc2c(NCCCNCCCCCCOc3cccc4[nH]c5ccccc5c34)c3c(nc2c1)CCCC3 ?
137

Cool, now Clc1ccc2c(NCCCNCCCCOc3cccc4[nH]c5ccccc5c34)c3c(nc2c1)CCCC3
211

Cool, now Clc1ccc2c(NCCCNCCCOc3cccc4[nH]c5ccccc5c34)c3c(nc2c1)CCCC3
296

====

Dear all, this message contains pIC50 results, target or system Glutamate NMDA receptor; GRIN1/GRIN2B (Homo sapiens, UniProt Q05586+Q13224).
Convention used: pIC50 is expressed as -log10 of the molar concentration.

Please review the entries below; each comes with its answer.
compound=Clc1ccc2c(NCCCNCCCCOc3cccc4[nH]c5ccccc5c34)c3c(nc2c1)CCCC3 target_system="Glutamate NMDA receptor; GRIN1/GRIN2B (Homo sapiens, UniProt Q05586+Q13224)" readout_label=pIC50 recorded_result=4.52
compound="Clc1ccc2c(NCCCNCCCOc3cccc4[nH]c5ccccc5c34)c3c(nc2c1)CCCC3 [CARBACRINE]" target_system="Glutamate NMDA receptor; GRIN1/GRIN2B (Homo sapiens, UniProt Q05586+Q13224)" readout_label=pIC50 recorded_result=6.13
compound=Clc1ccc2c(NCCCNCCCCCCOc3cccc4[nH]c5ccccc5c34)c3c(nc2c1)CCCC3 target_system="Glutamate NMDA receptor; GRIN1/GRIN2B (Homo sapiens, UniProt Q05586+Q13224)" readout_label=pIC50 recorded_result=4.89

What does the record list as pIC50 for Clc1ccc2c(NCCCNCCCCCOc3cccc4[nH]c5ccccc5c34)c3c(nc2c1)CCCC3 ?
4.74

====

Dear all, this message contains pIC50 results, target or system UniProtKB P22303.
Sequence (P22303 whole entry): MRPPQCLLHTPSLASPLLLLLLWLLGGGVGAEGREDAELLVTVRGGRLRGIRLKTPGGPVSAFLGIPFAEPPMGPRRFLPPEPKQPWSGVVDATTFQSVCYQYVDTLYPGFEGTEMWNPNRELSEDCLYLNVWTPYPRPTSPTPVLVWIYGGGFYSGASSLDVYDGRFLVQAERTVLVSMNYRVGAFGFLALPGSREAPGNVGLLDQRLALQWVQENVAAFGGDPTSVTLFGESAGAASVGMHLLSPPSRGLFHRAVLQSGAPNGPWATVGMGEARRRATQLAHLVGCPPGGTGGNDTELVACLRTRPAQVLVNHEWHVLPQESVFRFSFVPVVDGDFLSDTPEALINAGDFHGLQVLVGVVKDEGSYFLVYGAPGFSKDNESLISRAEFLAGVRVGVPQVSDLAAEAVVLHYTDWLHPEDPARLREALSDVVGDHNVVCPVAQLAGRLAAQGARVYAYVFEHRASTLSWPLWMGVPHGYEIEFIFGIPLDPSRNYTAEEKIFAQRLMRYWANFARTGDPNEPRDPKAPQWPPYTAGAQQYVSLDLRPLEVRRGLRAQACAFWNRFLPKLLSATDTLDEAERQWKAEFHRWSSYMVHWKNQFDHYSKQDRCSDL
Convention used: pIC50 is expressed as -log10 of the molar concentration.

Please review the entries below; each comes with its answer.
compound=Clc1ccc2c(NCCCNCCCCOc3cccc4[nH]c5ccccc5c34)c3c(nc2c1)CCCC3 recorded_result=8.78
compound=Clc1ccc2c(NCCCNCCCCCCOc3cccc4[nH]c5ccccc5c34)c3c(nc2c1)CCCC3 recorded_result=8.59
compound=Clc1ccc2c(NCCCNCCCCCOc3cccc4[nH]c5ccccc5c34)c3c(nc2c1)CCCC3 recorded_result=8.81

Consider now this further compound.
What does the record list as pIC50 for Clc1ccc2c(NCCCNCCCOc3cccc4[nH]c5ccccc5c34)c3c(nc2c1)CCCC3 [CARBACRINE] ?
8.67
